FYI, the data here is from patent US5314999A.

We begin with a simple list: items and their reported CC50 at 1.5 h.
Experiment: Toxicity on nucleated cells, human bone marrow
Format: cell-based
Conditions: 1 hour 30, trypan blue, read-out: LD 50 (concentration leading to a mortality of 50%)
Supply the numeric figure in mM, leaving out any unit text.

[[record]]
molecule = "CC1OC[C@@H](O)[C@H]([C@H](O)C(=O)CN[C@@H]2[C@H](O)[C@H](O[C@H]3/C=C/C=C/C=C/C=C/C=C/C=C/C=C/[C@H](C)[C@@H](O)[C@@H](C)[C@H](C)OC(=O)C[C@H](O)C[C@H](O)CC[C@@H](O)[C@H](O)C[C@H](O)C[C@]4(O)C[C@H](O)[C@@H](C(=O)O)[C@H](C3)O4)O[C@H](C)[C@H]2O)O1 (stereo partly shown)"
measurement_name = "CC50 at 1.5 h"
measurement_unit = "mM"
measured_number = 1


In the following, a different molecule is considered.
So, C[C@@H]1[C@H](O)[C@@H](C)/C=C/C=C/C=C/C=C/C=C/C=C/C=C/[C@H](O[C@@H]2O[C@H](C)[C@@H](O)[C@H](NCC(=O)[C@@H](O)[C@@H]3OC(c4ccccc4)OC[C@H]3O)[C@@H]2O)C[C@@H]2O[C@](O)(C[C@@H](O)C[C@@H](O)[C@H](O)CC[C@@H](O)C[C@@H](O)CC(=O)O[C@H]1C)C[C@H](O)[C@H]2C(=O)O (stereo partly shown) ? Its CC50 at 1.5 h was 1

====

Assay: Solubility of the AmB derivatives
Assay type: physicochemical
Details: 5% glucose solution, ambient temperature, up to saturation; read-out: solubility (soluble up to a concentration of)
MEASUREMENT_NAME: solubility (mg/mL)
Supply the numeric figure in mg/mL, leaving out any unit text.

[[record]]
compound = "C[C@@H]1[C@H](O)[C@@H](C)/C=C/C=C/C=C/C=C/C=C/C=C/C=C/[C@H](O[C@@H]2O[C@H](C)[C@@H](O)[C@H](NCC3(O)O[C@H](C(N)=O)[C@@H](O)[C@@H]3O)[C@@H]2O)C[C@@H]2O[C@](O)(C[C@@H](O)C[C@@H](O)[C@H](O)CC[C@@H](O)C[C@@H](O)CC(=O)O[C@H]1C)C[C@H](O)[C@H]2C(=O)O (stereo partly drawn)"
measured_number = 150

[[record]]
compound = "C[C@@H]1[C@H](O)[C@@H](C)/C=C/C=C/C=C/C=C/C=C/C=C/C=C/[C@H](O[C@@H]2O[C@H](C)[C@@H](O)[C@H](NCC3(O)O[C@H](C(=O)O)[C@@H](O)[C@@H]3O)[C@@H]2O)C[C@@H]2O[C@](O)(C[C@@H](O)C[C@@H](O)[C@H](O)CC[C@@H](O)C[C@@H](O)CC(=O)O[C@H]1C)C[C@H](O)[C@H]2C(=O)O (stereo partly drawn)"
measured_number = 20


In the following, a different compound is considered.
So, C[C@@H]1[C@H](O)[C@@H](C)/C=C/C=C/C=C/C=C/C=C/C=C/C=C/[C@H](O[C@@H]2O[C@H](C)[C@@H](O)[C@H](NCC(=O)[C@@H](O)[C@@H]3OC(c4ccccc4)OC[C@H]3O)[C@@H]2O)C[C@@H]2O[C@](O)(C[C@@H](O)C[C@@H](O)[C@H](O)CC[C@@H](O)C[C@@H](O)CC(=O)O[C@H]1C)C[C@H](O)[C@H]2C(=O)O (stereo partly drawn) ? Its solubility was 40
